TEST_TARGET: human vWF A1 domain (SEQ ID NO 5) (Homo sapiens, UniProt P04275, T1381A)
Sequence (P04275 with tags, fused parts or gaps T1381A): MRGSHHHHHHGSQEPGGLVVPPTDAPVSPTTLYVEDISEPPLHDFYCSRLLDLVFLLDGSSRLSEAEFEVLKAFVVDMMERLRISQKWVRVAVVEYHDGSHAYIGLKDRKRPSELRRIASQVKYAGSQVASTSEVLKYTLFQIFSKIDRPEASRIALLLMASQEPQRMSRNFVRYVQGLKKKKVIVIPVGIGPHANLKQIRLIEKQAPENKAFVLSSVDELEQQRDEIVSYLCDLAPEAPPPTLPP
MEASUREMENT_DESCRIPTION: 3-point dot blot screen, human vWF A1 domain
Type: binding
TEST_CONTEXT: rRdY aptamers; 100 nM human vWF A1 domain; ratio of fraction bound with target to without
Oligonucleotides are written 5' to 3', each unit as a sugar letter and its base; * is a phosphorothioate linkage, no mark a phosphodiester; rarer units and linkages stand in square brackets, end groups in braces. Plain capitals give the bases only. d = 2'-deoxy (DNA); r = 2'-OH (RNA)
ATTRIBUTE_MEASURED: Screen- Human/No Protein

Sample answers from the record:
MOLECULE	Screen- Human/No Protein
AMX203.F9: rRdY aptamer clone (nucleic acid) rGrGrArGdCrGdCrAdCdTdCrArGdCdCrAdCdTrGrArArGrGrGdTrArArGrGrAdCrGrArGrGrArGrGrGdTrAdTrAdCrArGdTrGdTrGdCrGdCrGdTrGdTrAdTdTdTdCrGrAdCdCdTdCdTdCdTrGdCdTrArGdC	1.45
AMX205.D11: rRdY aptamer clone (nucleic acid) rGrGrArGdCrGdCrAdCdTdCrArGdCdCrAdCrGrGdCrAdCrGrAdCrGrGdTrGrAdTrGrArAdTdTrArGdCrGdCrGrGdTrGdTdCrGrGdTrGrGdTrGdTdCrAdTdTdTdCrGrAdCdCdTdCdTdCdTrGdCdTrArGdC	2.22
AMX206.F9: rRdY aptamer clone (nucleic acid) rGrGrArGdCrGdCrAdCdTdCrArGdCdCrAdCrGrGrArGdCrGdTdCrGrGdTrGrAdTrGrGrAdTdTrArGdCrGdCrGrGdCdTdCdCrGdTrGrGdTrAdCrAdCrAdTdTdTdCrGrAdCdCdTdCdTdCdTrGdCdTrArGdC	2.98

Now look at this entry.
-- ask Give the measured Screen- Human/No Protein of AMX206.E7: rRdY aptamer clone (nucleic acid) rGrGrArGdCrGdCrAdCdTdCrArGdCdCrAdCrGrGrArGdCrGdTdCrGrGdTrGrAdTrGrGrAdTdTrArGdCrGdCrGrGdCdTdCdCrGdTrGrGdTrAdCrAdCdCdTdTdTdCrGrAdCdCdTdCdTdCdTrGdCdTrArGdC .
-- reply 2.11
